assay: decrease of insulin promoter-GFP reporter – imaging, high-content screening, mouse beta cells (AID 1628); conditions: MIN6 insulin promoter GFP reporter, at 5 µM
The campaign covered roughly 190,000 compounds. About 930 (0.49%) were called active.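 The calls were made as follows: active = z-score of insulin promoter reporter brightness in nuclei below -3 at 5 µM, with at least 500 cells counted; inconclusive = wells with under 500 cells, flagged as toxic or sparse; inactive = the rest.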 This is one part of the list. Potency and affinity values are given separately.
Outcomes: active, inactive

{"columns": ["Compound", "Answer label"],
 "data": [
  ["CN(C)c1ccc(/C=C/C(=O)c2c(O)c3ccccc3oc2=O)cc1", "inactive"],
  ["O=C(/C=C/c1cn(CC(O)CN2CCCCCC2)c2ccccc12)c1cccs1 (stereo unspecified)", "inactive"],
  ["CN(C)c1ccc(C(=O)c2ccc(N(C)C)c3ccccc23)cc1", "active"],
  ["N#C/C(=C\\C1=C(N2CCOCC2)C(=C\\c2ccc(Cl)cc2)/CC1)C(=O)Nc1ccccc1F", "inactive"],
  ["CC1CCc2cc(F)ccc2N1C(=O)c1ccc2c(c1)OCO2 (stereo unspecified)", "active"],
  ["CC1CC(=O)C2=C(C1)OC(N)=C(C#N)C2c1coc2ccccc2c1=O (stereo unspecified)", "inactive"]
]}

###

test: decrease of insulin promoter-GFP reporter – imaging, high-content screening, mouse beta cells (AID 1628); conditions: MIN6 insulin promoter GFP reporter, at 5 µM, active compounds read low
Among all 190,000 compounds or so, about 930 (0.49%) were called active. This is one part of the list. Results with a measured potency or affinity are listed apart.
Lab note: anything with z-score below -3 is marked t; values at -3 or higher are marked f.

{"columns": ["Molecule", "Answer label"],
 "data": [
  ["CO/N=C/c1ccc(N2CCN(C(=O)c3ccc(F)cc3)CC2)c([N+](=O)[O-])c1", "t"],
  ["Nc1ncnc2c1ncn2CCOc1ccccc1", "t"],
  ["COc1cccc(/C=N/NC(=O)c2oc3nc(-c4ccccc4)cc(-c4ccco4)c3c2N)c1", "f"],
  ["CCN(CC)C(=O)c1sc2nc(-c3cccs3)cc(-c3cccs3)c2c1N", "f"],
  ["CCCn1c(CN2CCN(c3cccc(Cl)c3)CC2)nc2c1c(=O)n(C)c(=O)n2C", "t"],
  ["COC(=O)c1cc(Nc2cc(C)c3ccc(O)cc3n2)cc(C(=O)OC)c1", "t"],
  ["CCCCn1c(=O)[nH]c2nc3cc(N)ccc3nc2c1=O", "f"],
  ["Cc1ccc(-c2nc(C#N)c(NCCN3CCCCC3)o2)cc1", "t"],
  ["O=C1Nc2ccc(Br)cc2C12NNc1ccccc1O2 (centres undefined)", "f"],
  ["COC(=O)c1cc(-c2c(C)oc3cc(O)ccc3c2=O)c(C)o1", "f"],
  ["CCN1CCC2(CC1)N=C(c1ccc(F)cc1)C(=S)N2", "f"],
  ["N#C/C(=C/c1ccc(N2CCCCC2)o1)C(=O)NCCc1c[nH]c2ccccc12", "f"],
  ["CCc1cccc2cc3c(N)c(C(=O)Nc4ccc(S(=O)(=O)N5CCCC5)cc4)sc3nc12", "f"],
  ["CCCc1cc(=O)[nH]c(SCC(=O)NCCCC(=O)OCC)n1", "f"],
  ["Cn1c(=O)[nH]c(=O)c2c1nc(N1CCCCC1)n2CCCSc1nc2ccccc2s1", "f"],
  ["C=CCN1C(=O)C(O)(CC(=O)c2ccc(OC)cc2OC)c2cc(Br)ccc21 (centres undefined)", "t"],
  ["COc1ccc(CN=Cc2[nH]c3ccc(Br)c(Cl)c3c2O)cc1", "f"],
  ["Nc1c(C(=O)c2ccccc2)sc2nsc(SCCN3CCCC3)c12", "f"],
  ["O=C(NCc1cccnc1)c1ccc(CN2CCc3ccccc3C2)cc1", "f"],
  ["COc1ccc(/C=C2\\C(=O)NC(=S)N2C(=O)c2ccc(F)cc2)cc1", "f"],
  ["N#C/C(=C/c1ccc(N2CCCCCC2)o1)c1cccc(F)c1", "f"],
  ["CC(=O)c1ccc2cccc3c2c1N=CN3C", "f"],
  ["CCCC1CC(=O)OC1(C)C(=O)CSc1n[nH]c(-c2ccccc2)n1 (centres undefined)", "t"],
  ["Cn1c(SCC(=O)NC2CCCCCC2)nnc1-c1cccs1", "f"],
  ["Cc1cccc(NC(=S)NNC(=O)c2csc(C(C)C)c2)c1", "f"],
  ["CCC(=O)c1cc(F)c(N2CCN(S(=O)(=O)c3ccc(C)cc3)CC2)cc1C", "t"],
  ["CC(=O)c1c(COC(=O)c2ccncc2)nc2ccccc2[n+]1[O-]", "f"],
  ["CCN(CC)S(=O)(=O)c1ccc2[nH]cc(C(=O)NCCC3=CCCCC3)c(=O)c2c1", "t"],
  ["O=S1(=O)N=C(N(CCO)/N=C/c2ccncc2)c2ccccc21", "f"],
  ["Cc1cc(C)nc(SCc2ccc(C(=O)N/N=C/c3cccc(O)c3O)cc2)n1", "t"],
  ["COc1cc(OC)c2cc(C(=O)N/N=C/c3cccc(OC)c3O)[nH]c2c1", "t"],
  ["COc1ccc(NC(=O)CCN2CCCC(C)C2)cc1 (centres undefined)", "f"],
  ["COc1cccc(/C=N/NC(=O)c2c(C)nc3ccc(Br)cn23)c1O", "t"],
  ["O=C(COc1ccc2ccccc2c1Br)Nc1ncn[nH]1", "f"],
  ["O=C(COc1ccc(Cl)cc1)NCc1nnc(SCC(=O)NC2CCCCC2)o1", "f"],
  ["CCNc1ccc2noc3c2c1C(=O)c1ccccc1-3", "f"],
  ["c1ccc(CCn2nnnc2C(c2cccs2)N2CCN(Cc3ccc4c(c3)OCO4)CC2)cc1 (centres undefined)", "t"],
  ["COc1ccc(C(=O)/C=C/c2ccc(N(C)C)cc2)c(OC)c1", "f"],
  ["O=C(Nc1ccc(-c2csc(Nc3cccc(C(F)(F)F)c3)n2)cc1)c1cccc(C(F)(F)F)c1", "t"],
  ["N=c1c2c(n(Cc3ccc(F)cc3)c3c1CCC3)CCC2", "t"],
  ["CCCCn1c(CN2CCN(c3cccc(Cl)c3)CC2)nc2c1c(=O)n(C)c(=O)n2C", "t"],
  ["Cc1csc(SCC(=O)Nc2ccc(S(=O)(=O)N3CCCC3)cc2)n1", "f"],
  ["CCn1cc(C(=O)NCCN(C)CCc2ccccc2)c(=O)c2cc(S(=O)(=O)N(C)C)ccc21", "f"]
]}

###

experiment: decrease of insulin promoter-GFP reporter – imaging, high-content screening, mouse beta cells (AID 1628); details: MIN6 insulin promoter GFP reporter, at 5 µM, active compounds read low
Hit rate of the full screen: of about 190,000 compounds, about 930 (0.49%) were called active. The list shows a part of the results. Measured potencies and affinities stand elsewhere.
Lab note: anything with z-score below -3 is marked Yes; values at -3 or higher are marked No.

{"columns": ["Compound", "Answer label"],
 "data": [
  ["COc1ccc(OCCn2cc(/C(N)=N/O)c3ccccc32)cc1", "No"],
  ["CCCCn1c(=N)n(CCOc2ccc(C)cc2)c2ccccc21", "Yes"],
  ["CCCn1c(=N)n(CCOc2ccc(OC)cc2)c2ccccc21", "Yes"],
  ["Cc1nnc(NC(=O)c2sc3nc(-c4cccs4)cc(C(F)(F)F)c3c2N)s1", "No"],
  ["Cc1ccc(CNc2ccc3c(c2)OCO3)c(C)c1", "No"],
  ["CCOC(=O)Cn1c2ccc(F)cc2c2nc(C)sc21", "No"],
  ["COc1cc(C)c(CNc2ccc(OC)c(OC)c2)cc1C", "Yes"],
  ["Cc1ccc2nc(C)c(C(=O)O)cc2c1", "No"],
  ["COc1ccc(C(=O)Nc2ccc(S(=O)(=O)Nc3nccnc3OC)cc2)cc1OC", "Yes"],
  ["COC(=O)c1ccc(OCCn2cnc3ccccc3c2=O)cc1", "No"],
  ["COc1ccc(C(NC(C)=O)c2ccc3cccnc3c2O)c(OC)c1 (configuration not stated)", "Yes"],
  ["CCCOc1ccc(Cn2cnc3ccccc32)cc1", "Yes"]
]}

###

experiment: decrease of insulin promoter-GFP reporter – imaging, high-content screening, mouse beta cells (AID 1628); settings: MIN6 insulin promoter GFP reporter, at 5 µM, active compounds read low
In all, about 190,000 compounds went through this assay and about 930 (0.49%) were called active. The list shows a part of the results. Measured potencies and affinities stand elsewhere.
Lab note: anything with z-score below 0.3 is marked y; values at 0.3 or higher are marked n.

{"columns": ["Compound", "Answer label"],
 "data": [
  ["COc1ccc(-c2csc(N(CCCN3CCOCC3)C(=O)c3ccco3)n2)cc1", "y"],
  ["CC1CCN(S(=O)(=O)c2ccc(NC(=O)N3c4ccccc4Sc4ccccc43)cc2)CC1", "y"],
  ["Cc1nc2c(oc3ccccc32)c(=O)o1", "n"],
  ["COc1ccc(NC(=S)N(CCCN2CCOCC2)C(C)c2cc3cccc(OC)c3o2)cc1 (stereo not given)", "n"],
  ["COc1ccc(-c2cc(C(F)(F)F)nc(SCC(=O)NCCN3CCOCC3)n2)cc1OC", "y"]
]}

These data points were gathered from PubChem BioAssay AID1628.
